Data provenance is patent US7410995B1.

# Test system: retinal ganglion cell axons
# assay protocol: Protection of retinal ganglion cell axons from degeneration following optic nerve transection (Table V)
# Assay type: in vivo
# test conditions: ± SEM
In this section we review reported RT 97 RGC axon density 14 days after ON transection values for a set of molecules.

Below, each entry is followed by its recorded RT 97 RGC axon density 14 days after ON transection result.
| molecule | test value |
| --- | --- |
| CCC(C)(C)C(=O)C(=O)N1CCCC[C@H]1C(=O)O [G] | 34.0% ± 4.8% SEM |
| CCC(C)(C)C(=O)C(=O)N1CCS[C@@H]1C(=O)OCCCc1cccnc1 [F] | 55.1% ± 5.9% SEM |
| O=C(SCCCc1ccccc1)[C@@H]1CCCN1C(=O)NC12CCC(CC1)C2 [B] | 100.0% ± 5.2% SEM |
| CCC(C)(C)C(=O)C(=O)N1CCC[C@H]1C(=O)SCCC(c1ccccc1)c1ccccc1 [M] | −6.3% ± 3.9% SEM |

What RT 97 RGC axon density 14 days after ON transection value was documented for this molecule, O=C(SCCCc1ccccc1)[C@@H]1CCCN1S(=O)(=O)Cc1ccccc1 [C] ?
60.4% ± 3.1% SEM

###

# Tested on: retinal ganglion cell axons
# assay protocol: Protection of retinal ganglion cell axons from degeneration following optic nerve transection (Table V)
# Assay type: in vivo
# test conditions: ± SEM
Catalogue of compounds with associated RT 97 RGC axon density 14 days after ON transection

| cpd smiles | test value |
| --- | --- |
| CCC(C)(C)C(=O)C(=O)N1CCCC[C@H]1C(=O)SCCC(c1ccccc1)c1ccccc1 | 13.0% ± 4.2% SEM |
| O=C(OCCCc1cccnc1)[C@@H]1CCCN1C(=S)NC1CCCCC1 | 23.8% ± 5.3% SEM |
| CCC(C)(C)C(=O)C(=O)N1CCCC[C@H]1C(N)=O | 30.3% ± 8.0% SEM |
| CCC(C)(C)C(=O)C(=O)N1CCC[C@H]1C(=O)O | 7.8% ± 3.0% SEM |

Entry `CCC(C)(C)C(=O)C(=O)N1CCC[C@H]1C(=O)CCCCc1cccnc1` : reported RT 97 RGC axon density 14 days after ON transection = ?
15.8% ± 4.8% SEM
